target_or_system: UniProt P11511
Sequence (P11511 whole entry): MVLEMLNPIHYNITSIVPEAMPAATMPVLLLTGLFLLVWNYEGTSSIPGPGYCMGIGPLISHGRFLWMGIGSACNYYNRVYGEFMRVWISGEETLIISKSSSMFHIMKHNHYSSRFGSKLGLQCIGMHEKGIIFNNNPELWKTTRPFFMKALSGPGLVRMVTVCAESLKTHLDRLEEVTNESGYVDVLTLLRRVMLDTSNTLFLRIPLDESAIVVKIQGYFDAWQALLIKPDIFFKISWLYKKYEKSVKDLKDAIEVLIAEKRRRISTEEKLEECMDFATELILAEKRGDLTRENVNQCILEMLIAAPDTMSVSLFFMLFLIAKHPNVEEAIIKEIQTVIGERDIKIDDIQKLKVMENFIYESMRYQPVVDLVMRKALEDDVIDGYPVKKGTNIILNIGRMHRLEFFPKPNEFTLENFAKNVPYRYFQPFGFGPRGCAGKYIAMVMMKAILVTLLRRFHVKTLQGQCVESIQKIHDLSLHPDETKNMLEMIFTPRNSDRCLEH
assay_protocol: Inhibition of human aromatase using androstenedione as substrate assessed as remaining estrone level at 10 uM after 30 mins by LC-MS/MS analysis relative to control
condition_description: 0.5 h, read-out: Activity
endpoint_label: activity at 10 µM (%)
Just the number please, in %, no unit attached.

Look over these answered cases.
O=C1c2ccc(O)cc2O[C@H](c2ccc(O)c(O)c2)[C@H]1O (relative stereo)	110
O=C(O)c1cc(O)c(O)c(O)c1	112
O=c1c(O)c(-c2ccc(O)c(O)c2)oc2cc(O)cc(O)c12	96
O=Cc1ccc(O)cc1O	91.7
O=C(O)c1ccc(O)c(O)c1	83.5
O=c1c(O)c(-c2ccc(O)c(O)c2)oc2cc(O)ccc12	117
O=c1c(O)c(-c2ccc(O)cc2)oc2cc(O)ccc12	102
O=C1c2c(O)cc(O)cc2O[C@H](c2ccc(O)c(O)c2)[C@H]1O [(+)-TAXIFOLIN]	90.7
O=C1c2ccc(O)cc2O[C@H](c2ccc(O)cc2)[C@H]1O	99.3
O=C1/C(=C/c2ccc(O)c(O)c2)Oc2cc(O)ccc21	99

--- query ---
Enquiry: Report measured activity at 10 µM on UniProt P11511; entry: `Oc1cccc(O)c1`
Return: 91.8
